- ASSAYED TARGET: T1, purified ALK protein (BLitz, Table 20) (Homo sapiens (Human), UniProt Q9UM73 19-1038, limits assumed)
- T1 construct: also called purified ALK proteins
- T1 sequence (Q9UM73 19-1038 limits assumed): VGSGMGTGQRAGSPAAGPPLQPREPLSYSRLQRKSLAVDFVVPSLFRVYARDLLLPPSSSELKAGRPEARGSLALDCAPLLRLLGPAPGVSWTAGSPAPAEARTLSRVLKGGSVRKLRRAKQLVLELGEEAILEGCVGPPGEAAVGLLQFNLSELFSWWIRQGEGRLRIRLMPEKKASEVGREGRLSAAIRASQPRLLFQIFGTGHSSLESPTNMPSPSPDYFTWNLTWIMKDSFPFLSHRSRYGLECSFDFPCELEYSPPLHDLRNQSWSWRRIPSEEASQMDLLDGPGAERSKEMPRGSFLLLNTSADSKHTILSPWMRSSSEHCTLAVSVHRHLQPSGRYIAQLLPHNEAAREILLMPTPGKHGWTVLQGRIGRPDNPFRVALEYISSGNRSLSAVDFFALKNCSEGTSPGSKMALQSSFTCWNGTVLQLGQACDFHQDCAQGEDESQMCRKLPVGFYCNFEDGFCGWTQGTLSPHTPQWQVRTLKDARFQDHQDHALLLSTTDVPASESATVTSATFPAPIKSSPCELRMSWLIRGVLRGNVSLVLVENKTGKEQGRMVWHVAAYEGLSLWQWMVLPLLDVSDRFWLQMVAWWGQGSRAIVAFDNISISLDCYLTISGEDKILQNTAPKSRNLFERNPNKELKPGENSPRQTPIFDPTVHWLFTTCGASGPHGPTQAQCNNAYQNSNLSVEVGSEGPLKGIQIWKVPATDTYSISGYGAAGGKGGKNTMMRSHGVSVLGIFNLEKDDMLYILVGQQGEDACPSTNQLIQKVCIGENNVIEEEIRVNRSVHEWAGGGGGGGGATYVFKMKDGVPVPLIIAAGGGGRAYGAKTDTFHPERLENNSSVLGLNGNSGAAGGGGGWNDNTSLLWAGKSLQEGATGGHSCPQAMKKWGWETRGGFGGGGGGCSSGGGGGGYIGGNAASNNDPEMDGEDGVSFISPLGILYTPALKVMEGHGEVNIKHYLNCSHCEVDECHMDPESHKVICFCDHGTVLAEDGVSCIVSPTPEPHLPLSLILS
- ASSAY EXPLANATION: BLI (BLitz), mAb on Protein A tip, purified ALK in solution
- Protocol: Kinetic measurements of the monovalent affinity of the 96 humanized ALK antibody variants (Ab351-Ab446) were collected. Affinity ranking was performed using a BLitz® System (ForteBio, Menlo Park, Calif.). Humanized anti-ALK antibodies were immobilized at 0.5 mg/mL using Protein A tips. Once baseline stability was ensured, purified ALK proteins at 70 μg/mL were added. The resulting kinetic data were fit to a single binding site equation, from which the quoted monovalent KD values were derived.
Kindly supply the reported pKd values for the records listed here.
Give bare numbers, as −log10 of the molar value.

Use the examples below as a reference point.
binder="Ab373 (antibody, V domains shown, humanized) VH: EVQLVQSGAEVKKPGSSVKVSCKASGYTFSSYWMHWVRQAPGQGLEWIGYIKPSSGYTKYNQKFKDKATLTADKSTSTAYMELSSLRSEDTAVYYCARDYYGSSSWFAYWGQGTLVTVSS VL: DIVMTQSQAFMSVTVGEKVTITCKASQNVGTNVAWYQQKPDQAPKALIYSASYRYSGVPSRFSGSGSGTDFTLTISSLEAEDAATYYCQQYNSYPYMYTFGQGTKLEIK" reported_measurement=6.55
binder="Ab364 (antibody, V domains shown, humanized) VH: EVQLVQSGPEVKKPGTSVKLSCKASGYTFTSYWMHWVRQARGQRLEWIGYIKPSSGYTKYNQKFKDRATLTADKSTSTAYMELSSLRSEDTAVYYCARDYYGSSSWFAYWGQGTLVTVSS VL: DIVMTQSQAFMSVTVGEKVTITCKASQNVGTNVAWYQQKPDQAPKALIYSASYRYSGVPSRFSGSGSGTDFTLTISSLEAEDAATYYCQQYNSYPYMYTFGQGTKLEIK" reported_measurement=6.89
binder="Ab425 (antibody, V domains shown, humanized) VH: EVQLVQSGAEVKKPGTSVKLSCKASGYTFTSSAMQWVKQAPGQGLEWIGYIKPSSGYTKYNQKFKDKATLTADKSTSTAYMELSSLRSEDTAVYYCARDYYGSSSWFAYWGQGTLVTVSS VL: EIVMTQSPATLSTSPGERATLSCRASQSVSSNLAWYQQKPGQAPRALIYSASYRYSGVPARFSGSGSGTDFTLTISSVEPEDFAVYYCQQYNSYPYMYTFGQGTKLEIK" reported_measurement=5.64

For each of the binders below, note its pKd.
1. Ab351 (antibody, V domains shown, humanized) VH: QVQLVQSGAEVAKPGTSVKLSCKASGYTFTSYWMHWVKQAPGQGLEWIGYIKPSSGYTKYNQKFKDKVTLTADKSTSTAYMELSSLRSEDTAVYYCARDYYGSSSWFAYWGQGTLVTVSS VL: EIVMTQSPAFLSVTPGEKVTITCKASQNVGTNVAWYQQKPDQAPKALIYSASYRYSGVPSRFSGSGSGTDFTLTISSLEAEDAATYYCQQYNSYPYMYTFGQGTKLEIK
2. Ab355 (antibody, V domains shown, humanized) VH: QVQLVQSGAEVAKPGASVKLSCKASGYTFTSYWMHWVKQAPGQGLEWIGYIKPSSGYTKYNQKFKDKATLTADKSTSTAYMELRSLRSDDTAVYYCARDYYGSSSWFAYWGQGTLVTVSS VL: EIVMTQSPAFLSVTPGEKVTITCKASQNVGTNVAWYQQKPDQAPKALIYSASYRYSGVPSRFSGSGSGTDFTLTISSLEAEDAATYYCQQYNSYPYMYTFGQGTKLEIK
3. Ab419 (antibody, V domains shown, humanized) VH: QVQLVQSGAEVAKPGSSVKLSCKASGYTFTSYWMHWVKQAPGQGLEWIGYIKPSSGYTKYNQKFKDKATLTADKSTSTAYMELSSLRSEDTAVYYCARDYYGSSSWFAYWGQGTLVTVSS VL: EIVMTQSQATLSTSPGERATLSCKASQNVGTNVAWYQQKPGQAPRALIYSASYRYSGVPARFSGSGSGTDFTLTISSVEPEDFAVYYCQQYNSYPYMYTFGQGTKLEIK

1: 6.92; 2: 7.06; 3: 6.97
